- TARGET_SYSTEM: insulin (Homo sapiens)
- Construct: purchased Roche 1376497
- Sequence (P01308 25-54 limits assumed): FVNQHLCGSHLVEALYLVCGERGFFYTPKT
- Sequence (P01308 90-110 limits assumed): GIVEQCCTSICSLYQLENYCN
- ASSAY_EXPLANATION: Kinetic analysis using surface plasmon resonance (Biacore T200), immobilized insulin
- Type: binding
- REPORTED_CONDITIONS: Table 7; MGSSHHHHHHGSS-[Y#####]-A
OBSERVABLE: kd (s⁻¹)

1 = Y00361: insulin binding Y variant from Ylib002Naive.I, SEQ ID NO:144 (LAEAKEAAIAELDSKGVGAKFIKMIQSAKLVETVQLLKQAILADLPA; Engineered insulin binding Y variant)
2 = Y00310: insulin binding Y variant from Ylib002Naive.I, SEQ ID NO:135 (LAEAKEAAIAELDSKGVGAYQIKFIQIAHTVEEVQLMKQAILADLPA; Engineered insulin binding Y variant)
Prompt line: Parameter check: reported kd is higher for which label, 1 or 2 ? // output: label of the selected item
Response line: 2
(2: 0.0063 s⁻¹, 1: 0.0036 s⁻¹)

P = Y00345: insulin binding Y variant from Ylib002Naive.I, SEQ ID NO:138 (LAEAKEAAIAELDSKGVGAYQIKFIQVAKTVEAVQAIKQAILADLPA; Engineered insulin binding Y variant)
Q = Y00304: insulin binding Y variant from Ylib002Naive.I, SEQ ID NO:134 (LAEAKEAAIAELDSKGVGAYQIKFIQVAHDVEEVQILKQAILADLPA; Engineered insulin binding Y variant)
R = Y00301: insulin binding Y variant from Ylib002Naive.I, SEQ ID NO:133 (LAEAKEAAIAELDSKGVGARQIKWIQQAKSVEVVQWLKQAILADLPA; Engineered insulin binding Y variant)
Prompt line: Arrange by kd, high to low. Please reply with the labels ordered as requested. Many thanks.
Response line: R, P, Q
